Target: retinoic acid receptor (RAR) (Homo sapiens)
Construct: by the use of an extract from HL 60 cell nuclei; endogenous in cells
Sequence (P10276 whole entry): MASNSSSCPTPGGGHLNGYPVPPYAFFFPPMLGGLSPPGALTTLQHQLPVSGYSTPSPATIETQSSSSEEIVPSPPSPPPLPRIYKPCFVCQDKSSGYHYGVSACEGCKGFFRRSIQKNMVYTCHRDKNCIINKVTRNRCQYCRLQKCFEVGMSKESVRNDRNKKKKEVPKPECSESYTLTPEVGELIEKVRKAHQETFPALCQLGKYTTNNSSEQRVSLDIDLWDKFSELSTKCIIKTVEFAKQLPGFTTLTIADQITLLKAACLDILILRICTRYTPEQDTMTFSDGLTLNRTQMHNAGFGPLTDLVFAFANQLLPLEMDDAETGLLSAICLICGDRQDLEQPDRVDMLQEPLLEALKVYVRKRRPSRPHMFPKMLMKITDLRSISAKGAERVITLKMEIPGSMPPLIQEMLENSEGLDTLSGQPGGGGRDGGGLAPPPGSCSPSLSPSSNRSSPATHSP
Assay: Receptor binding assay using human promyelocytic leukemia cell HL60 (nuclear extract), inhibition of 3H-all-trans retinoic acid binding to RAR
Conditions: HL60 cell nucleus extract, 4° C., 16 hours
Threshold 20 nM. IC50 below it: 1. IC50 at it or above: 0.

Ask | For Cn1nc(-c2ccc(C(=O)O)cc2)c2ccc3cc4c(cc3c21)C(C)(C)CCC4(C)C , is the recorded IC50 below the cut-off of 20 nM?
Reply | 0

Ask | For Cn1nc(-c2ccc(C(=O)O)cc2)c2c1-c1cc3c(cc1CC2)C(C)(C)CCC3(C)C then?
Reply | 0

Ask | Quick one: CC1(C)CCC(C)(C)c2cc3c(cc21)CCc1c(-c2ccc(C(=O)O)cc2)cn(-c2ccccc2)c1-3
Reply | 1

Ask | // same read-out, input: CC(C)n1nc(-c2ccc(C(=O)O)cc2)c2c1-c1cc3c(cc1CC2)C(C)(C)CCC3(C)C
Reply | 0

Ask | Repeat with CC1(C)CCC(C)(C)c2cc3c(cc21)CCc1c(-c2ccc(C(=O)O)cc2)coc1-3
Reply | 0

Ask | Please answer likewise for CCCCCn1cc(-c2ccc(C(=O)O)cc2)c2c1-c1cc3c(cc1CC2)C(C)(C)CCC3(C)C
Reply | 0

Ask | Entry CCCCCCCOc1cc2c(cc1/C(C)=C/c1ccc(C(=O)O)cc1)C(C)(C)CCS2(=O)=O [Example R041-5253, reference compound] please
Reply | 1
